- Test system: various lung cancer cell lines
- experimental_details: Long term proliferation (LTP) assay in various cancer cell lines
- Type: cell-based
- condition_parameters: Hs766T; Pancreatic Cancer ductal carcinoma
pIC50: −log10 of the molar value.
assay_endpoint: pIC50

(1) O=C(Nc1cc(F)c(=O)n(CC(F)F)c1)c1cc(Cl)c(C(F)(F)F)s1 [Compound 298]
(2) N#Cc1sc(C(=O)Nc2cc(F)c(=O)n(CCF)c2)cc1Cl [Compound 139]
Ask: Quick check, higher pIC50 between 1 and 2 ? Response format: the label of the selected entry.
Reply: 2
(2: 6.00, 1: 5.00)

----------
- assayed_target: FL-SMARCA2 (full-length human SMARCA2 isoform 1) (Homo sapiens, UniProt P51531)
- Construct: FLAG tag (YKDDDDK) (C); made in house; host or cells: Sf21 insect cells (baculovirus, pFastBacI)
- Sequence (P51531 with tags, fused parts or gaps): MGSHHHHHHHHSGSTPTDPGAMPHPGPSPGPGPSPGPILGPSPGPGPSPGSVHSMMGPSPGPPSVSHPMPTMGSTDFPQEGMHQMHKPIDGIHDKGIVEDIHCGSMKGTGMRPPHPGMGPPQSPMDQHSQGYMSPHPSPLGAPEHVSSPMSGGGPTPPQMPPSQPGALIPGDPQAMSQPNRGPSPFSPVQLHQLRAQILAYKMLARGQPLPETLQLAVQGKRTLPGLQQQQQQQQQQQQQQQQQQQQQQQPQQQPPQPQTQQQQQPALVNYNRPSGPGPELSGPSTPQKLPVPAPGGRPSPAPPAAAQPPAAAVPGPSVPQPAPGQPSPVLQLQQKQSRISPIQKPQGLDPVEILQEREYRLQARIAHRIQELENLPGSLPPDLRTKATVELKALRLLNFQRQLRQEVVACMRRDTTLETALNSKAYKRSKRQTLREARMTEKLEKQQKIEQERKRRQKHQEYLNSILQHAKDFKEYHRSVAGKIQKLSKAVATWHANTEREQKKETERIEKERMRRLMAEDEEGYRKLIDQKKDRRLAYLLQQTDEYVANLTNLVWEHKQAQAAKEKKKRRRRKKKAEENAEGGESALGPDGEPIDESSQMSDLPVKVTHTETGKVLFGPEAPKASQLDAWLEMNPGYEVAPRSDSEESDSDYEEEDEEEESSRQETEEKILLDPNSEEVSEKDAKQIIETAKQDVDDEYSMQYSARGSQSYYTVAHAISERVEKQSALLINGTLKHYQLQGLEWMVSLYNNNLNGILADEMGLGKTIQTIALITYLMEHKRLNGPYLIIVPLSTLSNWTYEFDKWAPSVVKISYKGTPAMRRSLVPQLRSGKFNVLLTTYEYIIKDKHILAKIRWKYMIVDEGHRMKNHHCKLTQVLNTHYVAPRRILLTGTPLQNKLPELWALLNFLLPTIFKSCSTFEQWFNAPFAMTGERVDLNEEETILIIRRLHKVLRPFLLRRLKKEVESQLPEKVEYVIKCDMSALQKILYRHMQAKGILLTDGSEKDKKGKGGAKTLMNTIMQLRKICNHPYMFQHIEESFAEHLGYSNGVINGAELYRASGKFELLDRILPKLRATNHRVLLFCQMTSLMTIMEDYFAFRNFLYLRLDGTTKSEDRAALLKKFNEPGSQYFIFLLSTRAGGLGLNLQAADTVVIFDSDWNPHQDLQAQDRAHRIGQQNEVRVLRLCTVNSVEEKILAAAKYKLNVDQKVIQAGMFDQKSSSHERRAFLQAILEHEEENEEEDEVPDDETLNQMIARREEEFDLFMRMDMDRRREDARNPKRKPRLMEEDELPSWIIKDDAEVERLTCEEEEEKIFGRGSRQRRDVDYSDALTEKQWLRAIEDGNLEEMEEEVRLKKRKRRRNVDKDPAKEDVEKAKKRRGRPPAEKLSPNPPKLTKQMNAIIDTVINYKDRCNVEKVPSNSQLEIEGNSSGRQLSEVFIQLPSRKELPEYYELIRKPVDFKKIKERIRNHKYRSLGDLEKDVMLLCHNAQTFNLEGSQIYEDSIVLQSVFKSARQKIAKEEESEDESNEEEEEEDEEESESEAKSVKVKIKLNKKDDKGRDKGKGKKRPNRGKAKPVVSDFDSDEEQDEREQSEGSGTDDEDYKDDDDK
- experimental_details: SMARCA2 ATPase activity assay (ADP-Glo, chicken mononucleosome substrate)
- Assay type: biochemical
- condition_parameters: Table 3.1; ATPase assay, enzyme 5 nM, ATP 250 uM, chicken mononucleosome 10 nM, 30 min preincubation
- Description: Molecular Biology: Full-length human SMARCA2 isoform 1 (P51531) transcript clone was amplified from a cDNA library incorporating an N-terminal HIS tag ([…]) fused directly to Ser2 of SMARCA2 and a C-FLAG tag (YKDDDDK) fused directly to Glu1590 of SMARCA2. […] Expressed full-length SMARCA2 was purified from cell paste by FLAG affinity chromatography followed by anion exchange chromatography. […] The purity of the protein was measured as 74% using micro-capillary based gel electrophoresis.
assay_endpoint: IC50 (nM)

Worked examples, 5 compounds total:
N#Cc1cc(NC(=O)c2cc(F)c(Cl)s2)cn(CC(F)F)c1=O [Compound 338] = 89
O=C(Nc1cc(F)c(=O)n(CC(F)(F)F)c1)c1cnc(Cl)s1 [Compound 143] = 121
N#Cc1ncc(C(=O)Nc2cc(Cl)c(=O)n(CCF)c2)s1 [Compound 148] = 12.7
CCn1cc(NC(=O)c2cnc(C#N)s2)ccc1=O [Compound 206] = 317
CCn1cc(NC(=O)c2cc(C#N)c(Cl)s2)cc(Cl)c1=O [Compound 172] = 238

(A) CCn1cc(NC(=O)c2cc(Cl)c(Cl)s2)cc(NCCOC)c1=O [Compound 113]
(B) O=C(Nc1cc(F)c(=O)n(CCF)c1)c1cnc(C(F)(F)F)s1 [Compound 265]
(C) CCn1cc(NC(=O)c2snc(Cl)c2Cl)ccc1=O [Compound 34]
Ask: List from greatest to least IC50. Answer by listing the labels in the requested order.
Reply: C, A, B
(C: 28500 nM, A: 14100 nM, B: 81.5 nM)

(I) O=C(Nc1cc(Cl)c(=O)n(CC(F)(F)F)c1)c1cc(Cl)c(Cl)s1 [Compound 102]
(II) O=C(Nc1cc(F)c(=O)n(CCF)c1)c1cnc(C(F)F)s1 [Compound 295]
Ask: Hey, between I and II which has a smaller measured IC50? Response format: the label of the selected entry.
Reply: II

(I) Cn1c(C(=O)Nc2cc(F)c(=O)n(CCF)c2)cc(Cl)c1Cl [Compound 153]
(II) NS(=O)(=O)c1sc(C(=O)Nc2cc(F)c(=O)n(CCF)c2)cc1Cl [Compound 309]
(III) CSc1cc(C(=O)Nc2cc(F)c(=O)n(CC(F)F)c2)sc1Cl [Compound 341]
(IV) Cc1ncc(C(=O)Nc2cc(F)c(=O)n(CCF)c2)s1 [Compound 222]
Ask: Sort (4 compounds) by IC50: min first. Answer by listing the labels in the requested order.
Reply: I, III, IV, II
(I: 147 nM, III: 668 nM, IV: 1310 nM, II: 29600 nM)
